Assay summary: In vivo release of florfenicol: plasma levels after prodrug administration to cattle
Protocol conditions: bovine, plasma, sc, 40 mg/kg, subcutaneous administration, read-out: Total Average AUC of the compound of Example 2 as Florfenicol Equivalent
Parameter: AUC (ng·h/mL)
The reply should be a number in ng·h/mL, with the unit left off.

Value lookup for AUC; key = `CCOC(=O)O[C@H](c1ccc(S(C)(=O)=O)cc1)[C@@H](CF)NC(=O)C(Cl)Cl`
30400

---

Assay summary: Solubility in triacetin/benzyl alcohol 2:1 (volume/volume) solvent mixture
Type: physicochemical
Protocol conditions: 35% weight/volume florfenicol, 20° C.
Parameter: Solubility at selected concentration of contained florfenicol

CS(=O)(=O)c1ccc([C@@H](OC(=O)OCc2ccccc2)[C@@H](CF)NC(=O)C(Cl)Cl)cc1 [Example 14] = soluble
CS(=O)(=O)c1ccc([C@@H](OC(=O)OCCOC(=O)O[C@H](c2ccc(S(C)(=O)=O)cc2)[C@@H](CF)NC(=O)C(Cl)Cl)[C@@H](CF)NC(=O)C(Cl)Cl)cc1 [Example 26] = soluble
CCOC(=O)O[C@H](c1ccc(S(C)(=O)=O)cc1)[C@@H](CF)NC(=O)C(Cl)Cl [Example 2] = soluble
CCCCOCCOC(=O)O[C@H](c1ccc(S(C)(=O)=O)cc1)[C@@H](CF)NC(=O)C(Cl)Cl [Example 13] = soluble

---

Assay summary: In vitro enzymatic release of parent florfenicol from prodrugs in bovine serum
Format: in vitro ADME
Protocol conditions: 0 h; 37° C.
Description: The ability of a prodrug derivative of a parent drug molecule to act efficiently in vivo as a source of the free parent drug determines the utility of a particular prodrug for treatment. The prodrug's ability to release the parent drug in vivo, in the presence of endogenous enzymes, can be determined by measuring the systemic levels of the parent drug after administration of the prodrug to the animal. […]
Parameter: Florfenicol released from prodrugs (% of total) after treatment with bovine serum

CCCCOCCOC(=O)O[C@H](c1ccc(S(C)(=O)=O)cc1)[C@@H](CF)NC(=O)C(Cl)Cl = BQL
CC(C)OC(=O)O[C@H](c1ccc(S(C)(=O)=O)cc1)[C@@H](CF)NC(=O)C(Cl)Cl = BQL
CC(C)CCOC(=O)O[C@H](c1ccc(S(C)(=O)=O)cc1)[C@@H](CF)NC(=O)C(Cl)Cl = BQL
CCOC(=O)O[C@H](c1ccc(S(C)(=O)=O)cc1)[C@@H](CF)NC(=O)C(Cl)Cl = BQL^a
CS(=O)(=O)c1ccc([C@@H](OC(=O)OCc2ccccc2)[C@@H](CF)NC(=O)C(Cl)Cl)cc1 = BQL

Next molecule, Florfenicol released from prodrugs (% of total) after treatment with bovine serum to be filled in.
Please give the measured Florfenicol released from prodrugs (% of total) after treatment with bovine serum for this molecule: `CS(=O)(=O)c1ccc([C@@H](OC(=O)OCCOC(=O)O[C@H](c2ccc(S(C)(=O)=O)cc2)[C@@H](CF)NC(=O)C(Cl)Cl)[C@@H](CF)NC(=O)C(Cl)Cl)cc1`
BQL

---

Assay summary: In vivo release of florfenicol: plasma levels after prodrug administration to cattle
Protocol conditions: bovine, plasma, sc, 40 mg/kg, subcutaneous administration, read-out: Total Average AUC of the compound of Example 2 (unchanged prodrug)
Parameter: AUC (ng·h/mL)
Number in ng·h/mL, nothing else.

Would you kindly share the measured AUC for `CCOC(=O)O[C@H](c1ccc(S(C)(=O)=O)cc1)[C@@H](CF)NC(=O)C(Cl)Cl` ?
38000
